- Tested on: OCI-AML2;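 also: after 48 h exposure read by CellTiter-Glo luminescence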
- PROTOCOL_TEXT: cell viability relative to vehicle control; higher = less cytotoxic
- EXPERIMENTAL_CONDITIONS: 10 µM; SRSF2 genotype: wt/wt
Structures can show the parent of a compound that is named as a salt.
MEASUREMENT_LABEL: cell viability (%)
// return numeric value only (unit: %, not printed)

Worked cases, answers included:
[
  {
    "MOLECULE": "O=P(O)(O)Oc1cccc2ccccc12 [1-Naphthyl phosphate potassium salt]",
    "ASSAYED_SYSTEM": "OCI-AML2",
    "cell viability / %": 91.1
  },
  {
    "MOLECULE": "O=c1cc(N2CCOCC2)oc2c(-c3cccc4c3sc3ccccc34)cccc12",
    "ASSAYED_SYSTEM": "OCI-AML2",
    "cell viability / %": 66.4
  },
  {
    "MOLECULE": "COc1ccc([C@@H]2CC(=O)c3c(O)cc(O[C@@H]4O[C@H](CO)[C@@H](O)[C@H](O)[C@H]4O[C@@H]4O[C@@H](C)[C@H](O)[C@@H](O)[C@H]4O)cc3O2)cc1O [Neohesperidin]",
    "ASSAYED_SYSTEM": "OCI-AML2",
    "cell viability / %": 127
  },
  {
    "MOLECULE": "CC1(C)S[C@@H]2[C@H](NC(=O)[C@H](C(=O)O)c3ccsc3)C(=O)N2[C@H]1C(=O)O [Ticarcillin sodium]",
    "ASSAYED_SYSTEM": "OCI-AML2",
    "cell viability / %": 89.6
  },
  {
    "MOLECULE": "CC(C)c1cc(-c2ccc(F)c3ccccc23)nc(N)n1",
    "ASSAYED_SYSTEM": "OCI-AML2",
    "cell viability / %": 101
  },
  {
    "MOLECULE": "COc1cc2c(c(OC)c1OC)-c1c(cc3c(c1OC)OCO3)CC(C)C(C)C2 (configuration not stated) [Schisandrin B]",
    "ASSAYED_SYSTEM": "OCI-AML2",
    "cell viability / %": 84.9
  },
  {
    "MOLECULE": "COc1cc(N2CCC(N3CCN(C)CC3)CC2)ccc1Nc1ncc(Cl)c(Nc2ccccc2S(=O)(=O)C(C)C)n1",
    "ASSAYED_SYSTEM": "OCI-AML2",
    "cell viability / %": 16.6
  },
  {
    "MOLECULE": "Cc1noc(-c2ccc(CSCCC(=O)O)cc2)c1NC(=O)OC(C)c1ccccc1Cl (configuration not stated)",
    "ASSAYED_SYSTEM": "OCI-AML2",
    "cell viability / %": 111
  },
  {
    "MOLECULE": "NC(=O)NO [Hydroxyurea (Cytodrox)]",
    "ASSAYED_SYSTEM": "OCI-AML2",
    "cell viability / %": 108
  },
  {
    "MOLECULE": "C=C1[C@H](CO)[C@@H](O)C[C@@H]1n1cnc2c(=O)[nH]c(N)nc21 [Entecavir hydrate]",
    "ASSAYED_SYSTEM": "OCI-AML2",
    "cell viability / %": 94.7
  }
]

Just so you know, measured cell viability for COc1ccc(C[C@@H]2c3cc(Oc4cc(C[C@@H]5c6cc(OC)c(OC)cc6CCN5C)ccc4O)c(OC)cc3CCN2C)cc1 [Neferine] came out at 102

Documented cell viability of C[C@@H](Nc1cc(F)cc(F)c1)c1cc(C(=O)N(C)C)cc2c(=O)cc(N3CCOCC3)oc12 : 37.4

Notebook: O=C1O[C@H]([C@@H](O)CO)C(O)=C1O [Vitamin C (Ascorbic acid)] , cell viability read as 93

Reported cell viability for Cc1ccc(NC(=O)c2ccc(CN3CCN(C)CC3)cc2)cc1Nc1nc(-c2cccnc2)cs1 [Masitinib (AB1010)] was 52.1

Quick note, cell viability for CCCC(CCC)C(=O)O[C@H]1C[C@H]2CC[C@@H](C1)[N+]2(C)C [anisotropine methylbromide] landed at 93.6

Summary for this molecule, CC[C@H]1OC(=O)C[C@@H](O)[C@H](C)[C@@H](O[C@@H]2O[C@H](C)[C@@H](O)[C@H](N(C)C)[C@H]2O)[C@@H](CCN2C[C@H](C)C[C@H](C)C2)C[C@@H](C)C(=O)/C=C/C(C)=C/[C@@H]1CO[C@@H]1O[C@H](C)[C@@H](O)[C@@H](OC)[C@H]1OC [Tilmicosin] : cell viability is 105

cell viability reported for this molecule CO[C@H]1CC[C@H](N2C(=O)CNc3ncc(-c4ccc(C(C)(C)O)nc4)nc32)CC1 : 29.6

Reported cell viability of Cc1nc2ccc(NC(=O)Nc3ccnc4cccnc34)cc2o1 : 96.4
